Attribution: patent US10828315B2

Experiment: SDC-TRAP-0063 PK in male CD-1 mice (IV bolus)
Assay type: in vivo
Details: of monitored analyte, dosed SDC-TRAP-0063 50 mpk IV bolus

[
  {
    "COMPOUND": "CCc1c2c(nc3ccc(OC(=O)N4CCC(CCn5ccc6cc(-n7c(O)nnc7-c7cc(C(C)C)c(O)cc7O)ccc65)CC4)cc13)-c1cc3c(c(=O)n1C2)COC(=O)C3(O)CC (stereo not shown)",
    "Cmax [µM]": 414
  }
]

---

Details: female, SCID, mouse, in vivo, 48 h

[
  {
    "COMPOUND": "Nc1cccc2c1CN(C1CCC(=O)NC1=O)C2=O (stereo not shown) [Lenalidomide, lenalidomide, reference compound]",
    "Tumor Conc.": "0.0143 nmol/g of tissue"
  },
  {
    "COMPOUND": "CCc1c2c(nc3ccc(OC(=O)N4CCC(CCn5ccc6cc(-n7c(O)nnc7-c7cc(C(C)C)c(O)cc7O)ccc65)CC4)cc13)-c1cc3c(c(=O)n1C2)COC(=O)[C@]3(O)CC",
    "Tumor Conc.": "0.0188 nmol/g of tissue"
  },
  {
    "COMPOUND": "CC(C)c1cc(-c2nnc(O)n2-c2ccc(CC3CCN(CC(=O)Nc4cccc5c4CN(C4CCC(=O)NC4=O)C5=O)CC3)cc2)c(O)cc1O (stereo not shown)",
    "Tumor Conc.": "1.46 nmol/g of tissue"
  },
  {
    "COMPOUND": "CC(C)c1cc(-c2nnc(O)n2-c2ccc3c(ccn3CCC3CCNCC3)c2)c(O)cc1O",
    "Tumor Conc.": "1.06 nmol/g of tissue"
  }
]

---

Assay: SDC-TRAP-0063 PK in male SD rats (slow IV bolus)
Format: in vivo
Settings: of monitored analyte, dosed SDC-TRAP-0063 150 mpk slow IV bolus

[
  {
    "COMPOUND": "CCc1c2c(nc3ccc(OC(=O)N4CCC(CCn5ccc6cc(-n7c(O)nnc7-c7cc(C(C)C)c(O)cc7O)ccc65)CC4)cc13)-c1cc3c(c(=O)n1C2)COC(=O)C3(O)CC (stereo not shown)",
    "Cmax / µM": 1900
  }
]

---

Assay: Artificial membrane permeability assay (PAMPA)
Settings: same protocol, second table

[
  {
    "COMPOUND": "CCc1c2c(nc3ccc(O)cc13)-c1cc3c(c(=O)n1C2)COC(=O)[C@]3(O)CC [SN-38, reference compound]",
    "Mass Retention / %": 46.6
  },
  {
    "COMPOUND": "CCNC(=O)c1nnc(-c2cc(C(C)C)c(O)cc2O)n1-c1ccc(Oc2ccc(C(=O)N3CCC(C(=O)OC4(CC)C(=O)OCc5c4cc4n(c5=O)Cc5c-4nc4ccc(O)cc4c5CC)CC3)cc2)cc1 (centres unmarked)",
    "Mass Retention / %": 10.3
  },
  {
    "COMPOUND": "CCNC(=O)c1nnc(-c2cc(C(C)C)c(O)cc2O)n1-c1ccc(OC2CCN(c3cnc(C(=O)N[C@H]4C[C@H](O[C@H]5C[C@](O)(C(=O)CO)Cc6c(O)c7c(c(O)c65)C(=O)c5c(OC)cccc5C7=O)O[C@@H](C)[C@H]4O)cn3)CC2)cc1",
    "Mass Retention / %": 10.6
  },
  {
    "COMPOUND": "CCNC(=O)c1nnc(-c2cc(C(C)C)c(O)cc2O)n1-c1ccc2c(ccn2CCC2CCN(C(=O)O[C@]3(CC)C(=O)OCc4c3cc3n(c4=O)Cc4c-3nc3ccc(O)cc3c4CC)CC2)c1",
    "Mass Retention / %": 25.0
  },
  {
    "COMPOUND": "CCc1c2c(nc3ccc(O)cc13)-c1cc3c(c(=O)n1C2)COC(=O)[C@@]3(CC)OC(=O)N1CCC(CCn2ccc3cc(-n4c(O)nnc4-c4cc(C(C)C)c(O)cc4O)ccc32)CC1",
    "Mass Retention / %": 48.4
  },
  {
    "COMPOUND": "CCc1c2c(nc3ccc(OC(=O)N4CCC(CCn5ccc6cc(-n7c(O)nnc7-c7cc(C(C)C)c(O)cc7O)ccc65)CC4)cc13)-c1cc3c(c(=O)n1C2)COC(=O)[C@]3(O)CC",
    "Mass Retention / %": 18.7
  },
  {
    "COMPOUND": "CCc1c2c(nc3ccc(OC(=O)N(C)CCOCCn4ccc5cc(-n6c(O)nnc6-c6cc(C(C)C)c(O)cc6O)ccc54)cc13)-c1cc3c(c(=O)n1C2)COC(=O)C3(O)CC (centres unmarked)",
    "Mass Retention / %": 84.0
  },
  {
    "COMPOUND": "Cn1c(=O)c2c(ncn2C)n(C)c1=O",
    "Mass Retention / %": "−0.11"
  },
  {
    "COMPOUND": "CCc1c2c(nc3ccc(OC(=O)N4CCC[C@H]4C(=O)N4CCC(CCn5ccc6cc(-n7c(O)nnc7-c7cc(C(C)C)c(O)cc7O)ccc65)CC4)cc13)-c1cc3c(c(=O)n1C2)COC(=O)[C@]3(O)CC",
    "Mass Retention / %": 72.2
  },
  {
    "COMPOUND": "CCNC(=O)c1nnc(-c2cc(C(C)C)c(O)cc2O)n1-c1ccc2c(ccn2CCC2CCN(C(=O)Oc3ccc4nc5c(c(CC)c4c3)Cn3c-5cc4c(c3=O)COC(=O)[C@]4(O)CC)CC2)c1",
    "Mass Retention / %": 10.9
  },
  {
    "COMPOUND": "CCc1c2c(nc3ccc(OC(=O)N4CCN(Cc5ccc(-n6c(O)nnc6-c6cc(C(C)C)c(O)cc6O)cc5)CC4)cc13)-c1cc3c(c(=O)n1C2)COC(=O)C3(O)CC (centres unmarked)",
    "Mass Retention / %": 88.1
  }
]
